Data origin, for the record: patent EP1641803B1

system-tested: human Kv1.5 (Homo sapiens, UniProt P22460)
method-notes: Kv1.5 Rb+ Efflux Assay
conditions-used: inhibition of 86Rb+ efflux through Kv1.5; cells stably transfected with human Kv1.5; 10 point concentration response curves n=2; normalised to 2.5mM 4 amino-pyridine block
Here, each record is paired with measured IC50 data.
measured-endpoint: IC50 (µM)

1. Cc1sc2ncnc(N3CCCCC3)c2c1-c1ccccc1 [Example 159] = 13.4
2. CCc1sc2ncnc(NCc3ccco3)c2c1-c1ccoc1 [Example 141] = 2.15
3. CNc1nc(NCc2ccccn2)c2c(-c3ccccc3)csc2n1 [Example 196] = 0.04
4. Fc1ccc(-c2csc3ncnc(NCc4ccco4)c23)cc1 [Example 124] = 1.16

###

system-tested: UniProtKB P22460
method-notes: Kv1.5 Rb+ Efflux Assay
conditions-used: inhibition of 86Rb+ efflux through Kv1.5; cells stably transfected with human Kv1.5; 10 point concentration response curves n=2; normalised to 2.5mM 4 amino-pyridine block
Here, each record is paired with measured IC50 data.
measured-endpoint: IC50

1. c1ccc(CNc2ncnc3scc(-c4ccccc4)c23)cc1 = 4360 nM
2. Fc1ccc(-c2csc3ncnc(NCc4ccccn4)c23)cc1 = 50 nM
3. Cc1ccc(-c2csc3ncnc(NCc4ccco4)c23)cc1 = 470 nM
4. Clc1nc(NCc2ccccn2)c2c(-c3ccccc3)csc2n1 = 4130 nM
5. COCCNc1ncnc2scc(-c3ccccc3)c12 = 5270 nM
6. OCC(CO)c1nc(NCc2ccccn2)c2c(-c3ccccc3)csc2n1 = 1530 nM
7. OCCC1CCN(c2nc(NCc3ccccn3)c3c(-c4ccccc4)csc3n2)CC1 = 3410 nM
8. c1ccc(-c2csc3nc(NCc4ccco4)nc(NCc4ccco4)c23)cc1 = 2500 nM
9. COCCNc1nc(NCc2ccccn2)c2c(-c3ccc(F)cc3)csc2n1 = 1830 nM
10. c1ccc(-c2csc3ncnc(SCc4ccccn4)c23)cc1 = 12700 nM
11. CCc1sc2ncnc(NCc3ccco3)c2c1-c1ccccc1 = 2710 nM

###

system-tested: hKv1.5 (Homo sapiens, UniProt P22460)
Sequence (P22460 whole entry): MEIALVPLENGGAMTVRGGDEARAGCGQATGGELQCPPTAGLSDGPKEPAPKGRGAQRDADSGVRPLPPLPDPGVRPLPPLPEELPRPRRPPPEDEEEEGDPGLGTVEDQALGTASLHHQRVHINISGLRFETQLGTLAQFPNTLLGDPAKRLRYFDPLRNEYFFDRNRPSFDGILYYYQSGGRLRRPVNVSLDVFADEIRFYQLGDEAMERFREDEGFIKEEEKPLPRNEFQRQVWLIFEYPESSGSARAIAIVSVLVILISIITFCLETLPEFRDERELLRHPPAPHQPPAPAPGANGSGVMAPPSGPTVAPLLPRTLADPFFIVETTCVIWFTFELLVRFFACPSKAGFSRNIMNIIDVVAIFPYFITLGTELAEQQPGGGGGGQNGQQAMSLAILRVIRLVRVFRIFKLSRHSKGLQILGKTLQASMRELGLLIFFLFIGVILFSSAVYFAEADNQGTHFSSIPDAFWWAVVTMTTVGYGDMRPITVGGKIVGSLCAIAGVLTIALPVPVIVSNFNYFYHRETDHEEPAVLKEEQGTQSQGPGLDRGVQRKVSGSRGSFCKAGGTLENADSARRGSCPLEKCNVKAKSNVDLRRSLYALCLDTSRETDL
method-notes: Kv1.5 Autopatch Electrophysiology (whole cell patch-clamp)
Type: cell-based
conditions-used: compound at 1µM, room temperature (22-24°C), held at -80mV, step to 0mV for 1000ms, total charge measured
measured-endpoint: inhibition at 1 µM (%)

1. c1coc(CNc2ncnc3scc(C4CCCCC4)c23)c1 = 71
2. COCOc1ccc(-c2csc3ncnc(NCc4ccccn4)c23)cc1 = 93
3. CCc1nc(NCc2ccccn2)c2c(-c3ccccc3)csc2n1 = 98.7
4. CC(C)CNc1ncnc2scc(-c3cccs3)c12 = 22.9
5. Cc1ccc(-c2csc3ncnc(NCc4ccco4)c23)cc1C = 77
6. c1ccc(-c2csc3ncnc(SCc4ccccn4)c23)cc1 = 25
7. CN(C)c1nc(NCc2ccccn2)c2c(-c3ccccc3)csc2n1 = 98.1
8. Cc1ccc(-c2csc3ncnc(NCc4ccco4)c23)cc1 = 83.4
9. Cc1cccnc1CNc1ncnc2scc(-c3ccccc3)c12 = 92
10. c1ccc(CNc2ncnc3scc(C4CCCCC4)c23)nc1 = 81
11. CN(Cc1ccco1)c1ncnc2scc(-c3cccs3)c12 = 19.9
12. Nc1nc(NCc2ccccn2)c2c(-c3ccccc3)csc2n1 = 90
13. CN(C)Cc1nc(NCc2ccccn2)c2c(-c3ccccc3)csc2n1 = 76
14. c1ccc(-c2csc3ncnc(NCc4ccco4)c23)cc1 = 21.9
15. Fc1ccc(-c2csc3ncnc(NCc4ccccn4)c23)cc1F = 63
16. OCCc1nc(NCc2ccccn2)c2c(-c3ccccc3)csc2n1 = 98
17. COCc1nc(NCc2ccccn2)c2c(-c3ccccc3)csc2n1 = 94
18. C=CCNc1ncnc2scc(-c3ccccc3)c12 = 3.4
19. Fc1ccc(-c2csc3nc(N4CCOCC4)nc(NCc4ccccn4)c23)cc1 = 97.2
20. CCc1sc2ncnc(NCc3ccco3)c2c1-c1ccoc1 = 81.3

###

system-tested: hKv1.5 (Homo sapiens)
method-notes: Kv1.5 Autopatch Electrophysiology (whole cell patch-clamp)
Format: cell-based
conditions-used: compound at 1µM, room temperature (22-24°C), held at -80mV, step to 0mV for 1000ms, total charge measured
measured-endpoint: inhibition at 1 µM (%)

1) Clc1nc(NCc2ccccn2)c2c(-c3ccccc3)csc2n1 = 96
2) CC(C)(C)c1ccc(-c2csc3ncnc(NCc4ccccn4)c23)cc1 = 81
3) c1ccc(CNc2ncnc3scc(-c4ccc5cc[nH]c5c4)c23)nc1 = 94
4) CNC(=O)Cc1nc(NCc2ccccn2)c2c(-c3ccccc3)csc2n1 = 91
5) COc1ccc(-c2csc3ncnc(NCc4ccccn4)c23)cn1 = 83
6) c1ccc(-c2csc3ncnc(NCc4cccs4)c23)cc1 = 24.2
7) Cc1ccc(-c2csc3ncnc(NCc4ccccn4)c23)cc1C = 98
8) CCc1nc(NCc2ccco2)c2c(-c3ccccc3)csc2n1 = 96.8
9) Cc1cccc(CNc2ncnc3sc(Br)c(-c4ccccc4)c23)n1 = 99
10) c1ccc(-c2csc3nc(NCC4CC4)nc(NCc4ccccn4)c23)cc1 = 98
11) c1ccc(-c2csc3ncnc(OCc4ccccn4)c23)cc1 = 21.9
12) c1coc(CNc2ncnc3scc(-c4cccs4)c23)c1 = 27.6
13) c1ccc(CNc2ncnc3scc(-c4cccs4)c23)cc1 = 43.3
14) Cc1ccc(-c2csc3ncnc(NCCc4ccc5c(c4)OCCO5)c23)cc1C = 92
15) COC(=O)CNc1ncnc2scc(-c3ccccc3)c12 = 43.5
16) c1ccc(-c2csc3ncnc(NCCc4cccs4)c23)cc1 = 15.8
17) c1csc(-c2csc3ncnc(NCC4CC4)c23)c1 = 32.6
18) CN(C)C(=O)CNc1ncnc2scc(-c3ccccc3)c12 = 13.6
19) FC(F)(F)c1nc(NCc2ccccn2)c2c(-c3ccccc3)csc2n1 = 95
20) COCCNc1nc(NCc2ccccn2)c2c(-c3ccc(F)cc3)csc2n1 = 96
21) CCOC(=O)Cc1nc(NCc2ccco2)c2c(-c3ccccc3)csc2n1 = 96
22) c1ccc(CNc2ncnc3scc(-c4ccc5c(c4)OCCO5)c23)nc1 = 97
23) COCCOc1nc(NCc2ccccn2)c2c(-c3ccccc3)csc2n1 = 98
24) COC(=O)c1ccc(Oc2ncnc3scc(-c4ccc(C)cc4)c23)cc1 = 29.8
25) c1ccc(CNc2ncnc3scc(-c4ccccc4)c23)cc1 = 46
26) CCc1sc2ncnc(NCc3ccco3)c2c1-c1ccccc1 = 74.2
27) CNc1nc(NCc2ccccn2)c2c(-c3ccc(F)cc3)csc2n1 = 97.9
28) Brc1sc2ncnc(NCc3ccco3)c2c1-c1ccccc1 = 91
29) Cc1sc2ncnc(N3CCCCC3)c2c1-c1ccccc1 = 83
30) OCCN(CCO)c1nc(NCc2ccccn2)c2c(-c3ccccc3)csc2n1 = 96.6
31) COc1ccc(CCNc2ncnc3scc(-c4ccc(C)cc4)c23)cc1OC = 20.7
32) c1ccc(-c2csc3ncnc(NCc4ccccn4)c23)cc1 = 63
33) CN(C)c1nc(NCc2ccccn2)c2c(-c3ccc(F)cc3)csc2n1 = 99.3
34) FC(F)(F)c1cc(-c2csc3ncnc(NCc4ccccn4)c23)ccc1Cl = 79
35) c1ccc(-c2csc3nc(N4CCOCC4)nc(NCc4ccccn4)c23)cc1 = 98
36) N#Cc1nc(NCc2ccccn2)c2c(-c3ccccc3)csc2n1 = 99.5
37) Brc1sc2ncnc(NCc3ccccn3)c2c1-c1ccccc1 = 92.8
38) Cc1ccc(-c2csc3ncnc(NCCN4CCNC4=O)c23)cc1 = 25
39) C=CCNc1ncnc2scc(-c3cccs3)c12 = 17.5

###

system-tested: hKv1.5 (Homo sapiens, UniProt P22460)
method-notes: Kv1.5 Autopatch Electrophysiology (whole cell patch-clamp)
Format: cell-based
conditions-used: compound at 1µM, room temperature (22-24°C), held at -80mV, step to 0mV for 1000ms, total charge measured
Here, each record is paired with measured inhibition at 1 µM data.
measured-endpoint: inhibition at 1 µM (%)

1) Clc1nc(NCc2ccco2)c2c(-c3ccccc3)csc2n1 = 75.8
2) COCCNc1nc(NCc2ccccn2)c2c(-c3ccccc3)csc2n1 = 97.4
3) Clc1ccc(-c2csc3ncnc(NCCc4ccccc4)c23)cc1 = 27.2
4) Cc1nc(NCc2ccco2)c2c(-c3ccccc3)csc2n1 = 96.8
5) c1ccc(-c2csc3ncnc(NCC4CC4)c23)cc1 = 15.3
6) Cc1cccc(CNc2ncnc3sc(C)c(-c4ccccc4)c23)n1 = 97
7) Clc1ccc(-c2csc3ncnc(NCc4ccco4)c23)cc1 = 84.8
8) CC(Nc1ncnc2scc(-c3ccccc3)c12)c1ccccn1 (centres unmarked) = 78
9) OCCC1CCN(c2nc(NCc3ccccn3)c3c(-c4ccccc4)csc3n2)CC1 = 97.5
10) COc1ccc(-c2csc3ncnc(NCc4ccco4)c23)cc1 = 46.9
11) Brc1ccc(-c2csc3ncnc(NCCc4ccc5c(c4)OCCO5)c23)cc1 = 96
12) Cc1ccccc1-c1csc2ncnc(NCc3ccco3)c12 = 63
13) c1ccc(-c2nc(CNc3ncnc4scc(-c5ccccc5)c34)cs2)cc1 = 74.5
14) Cc1ccc(-c2csc3ncnc(NCc4ccccn4)c23)cc1 = 98
15) CN(C)c1ccc(-c2csc3ncnc(NCc4ccccn4)c23)cc1 = 98
16) c1ccc(-c2csc3ncnc(OCc4ccco4)c23)cc1 = 52.3
17) Fc1cccc(-c2csc3ncnc(NCc4ccccn4)c23)c1 = 76
18) Cc1ccc(-c2csc3ncnc(NCc4ccco4)c23)nc1 = 36.3
19) CCOC(=O)Cc1nc(NCc2ccccn2)c2c(-c3ccccc3)csc2n1 = 95
20) COC(=O)C1CCN(c2nc(NCc3ccccn3)c3c(-c4ccc(F)cc4)csc3n2)CC1 = 98.2
